# procedure-details: modulators of CIT2-GFP expression in yeast, confirmation, S. cerevisiae, GFP fusion, cherry picks, mother/daughter gates (AID 2274)
# condition-set: S. cerevisiae CIT2-GFP strain, flow cytometry, 3 h; measured here: mother cell gate; at 10 µM; stronger effect = higher value
For each entry below, report its GFP response, % of DMSO value.
Record the value in %, omitting the unit from your answer.

Challenge: So what does the record say about GFP response, % of DMSO for `NC(=O)c1ccccc1OCC(=O)c1ccc(Cl)cc1` ?
Response given: 100

Challenge: What do you have for CCOc1ccc(N2C(=O)CC(Sc3nccc(C)n3)C2=O)cc1 (stereo unspecified) ?
Response given: 102

Challenge: What do you have for `O=C(c1cccc2ccccc12)N1CCN(c2ccccc2F)CC1` ?
Response given: 93.2

Challenge: What do you have for `O=C(Nc1ccccc1)c1ccccc1O` ?
Response given: 92.6

Challenge: What do you have for `O=C(/C=C/c1ccccc1[N+](=O)[O-])c1ccccc1Br` ?
Response given: 82.8

Challenge: What do you have for `CCn1c(/C=C/c2ccc([N+](=O)[O-])o2)nc2ccccc2c1=O` ?
Response given: 251

Challenge: What do you have for `CCc1nnc(NC(=O)c2nc(S(=O)(=O)Cc3cccc(C)c3)ncc2Cl)s1` ?
Response given: 98

Challenge: What do you have for CCCc1[nH]nc2c1C(c1ccccc1OC)C(C#N)=C(N)O2 (stereo unspecified) ?
Response given: 112

Challenge: What do you have for `COc1ccc(-c2sc(C(=O)c3ccc(Cl)cc3Cl)cc2CC(=O)O)cc1` ?
Response given: 104

Challenge: What do you have for `CC(C)Oc1ccc(C(=O)/C=C2/C(=O)Nc3ccccc32)cc1` ?
Response given: 98.7

Challenge: What do you have for `Cc1cccc(N2C(=O)C(Cl)=C(Nc3c(C)n(C)n(-c4ccccc4)c3=O)C2=O)c1C` ?
Response given: 98

Challenge: What do you have for `Cc1cccc(OCCCSc2nc3ccc(C)cc3[nH]2)c1` ?
Response given: 82.1

Challenge: What do you have for `O=C(O/N=C(\c1ccccc1)c1ccncc1)c1ccccc1Cl` ?
Response given: 69.2

Challenge: What do you have for `CCOCCCNC(=O)/C(C#N)=C/c1ccc([N+](=O)[O-])o1` ?
Response given: 110

Challenge: What do you have for `COc1ccc(NC(=O)Nc2ccon2)c(OC)c1` ?
Response given: 101

Challenge: What do you have for `Cc1cc(OCC(=O)Nc2ccc(S(=O)(=O)N3CCN(C)CC3)cc2)ccc1Br` ?
Response given: 103

Challenge: What do you have for `Cc1ccc(-c2ccc(CCC(=O)O)o2)cc1` ?
Response given: 90.2

Challenge: What do you have for `COC(=O)c1ccc(/C=C/C(=O)c2cccc(OC)c2)cc1` ?
Response given: 102

Challenge: What do you have for CC(=O)Oc1ccc(N2C(=O)C3C4C=CC(O4)C3C2=O)cc1 (stereo unspecified) ?
Response given: 99.7

Challenge: What do you have for `Cc1cc(O)c(C(=O)/C=C/c2c(F)c(F)c(F)c(F)c2F)c(=O)o1` ?
Response given: 94.4

Challenge: What do you have for `Nc1cccnc1S(=O)(=O)c1ccccc1` ?
Response given: 97.7

Challenge: What do you have for `CC(=O)c1sc(NC(=O)c2ccco2)nc1-c1ccccc1` ?
Response given: 108

Challenge: What do you have for `CCOc1ccc(S(=O)(=O)n2ccnc2C)cc1` ?
Response given: 104

Challenge: What do you have for O=C1CCN(S(=O)(=O)c2ccccc2)C2CCCCC12 (stereo unspecified) ?
Response given: 101

Challenge: What do you have for CC1CCc2c(C(=O)NCc3cccnc3)csc2C1 (stereo unspecified) ?
Response given: 88.2

Challenge: What do you have for `O=S(=O)(Nc1cccc(-c2ccc(N3CCCCCC3)nn2)c1)c1ccccc1F` ?
Response given: 101

Challenge: What do you have for `CC(=O)Nc1ccc(NC(=O)c2ccccc2F)cc1` ?
Response given: 99.3

Challenge: What do you have for `CCC(=O)c1ccc(N2CCN(C(=O)c3ccc(Br)cc3)CC2)c(F)c1` ?
Response given: 93.2

Challenge: What do you have for Cc1cc(Cl)ccc1N1C(=O)CC(SCCC(=O)O)C1=O (stereo unspecified) ?
Response given: 101

Challenge: What do you have for `Cc1ccccc1C(=O)NNC(=S)NC(=O)c1ccc(Cl)cc1Cl` ?
Response given: 94.5

Challenge: What do you have for Cc1cc(=O)oc2cc(OC(C)C(=O)NC3CCCC3)ccc12 (stereo unspecified) ?
Response given: 95.6

Challenge: What do you have for `O=C(N/N=C/c1ccc(-c2ccc(Br)cc2)o1)c1ccc2c(c1)OCO2` ?
Response given: 98.1

Challenge: What do you have for `Cc1ccc(C(=O)c2c3ccccc3[n+]([O-])n2CCO)cc1` ?
Response given: 97.3

Challenge: What do you have for O=C(CSc1nc2ccsc2c(=O)n1CC1CCC(C(=O)O)CC1)c1ccc(F)cc1 (stereo unspecified) ?
Response given: 92.3

Challenge: What do you have for `O=C(OCn1ncc(Br)c(Br)c1=O)c1ccccc1Cl` ?
Response given: 86.3

Challenge: What do you have for `Cc1c(NC2=C(Cl)C(=O)N(c3ccccc3Cl)C2=O)c(=O)n(-c2ccccc2)n1C` ?
Response given: 110

Challenge: What do you have for `COc1ccccc1C1CCN(Cc2c(C)[nH]c3ccccc23)CC1` ?
Response given: 98.1

Challenge: What do you have for `Nc1ccc(C(=O)N/N=C/c2ccccc2)cc1` ?
Response given: 99.3

Challenge: What do you have for CS(=O)(=O)N1N=C(c2ccco2)CC1c1ccc(Br)cc1 (stereo unspecified) ?
Response given: 101

Challenge: What do you have for CCOC(=O)C(CC)Sc1ncnc2c1nnn2-c1ccc(F)cc1 (stereo unspecified) ?
Response given: 97.3

Challenge: What do you have for `Cc1nnc(N2C(=O)c3cccc4cccc(c34)C2=O)s1` ?
Response given: 102

Challenge: What do you have for Cc1cccc(NC(c2ccc(C)s2)c2ccc3ccc(C)nc3c2O)n1 (stereo unspecified) ?
Response given: 94.4

Challenge: What do you have for `COC(=O)c1ccc(Sc2ccccn2)c([N+](=O)[O-])c1` ?
Response given: 104

Challenge: What do you have for COc1ccc(Cl)cc1C(Nc1cccnc1)c1ccc2cccnc2c1O (stereo unspecified) ?
Response given: 101

Challenge: What do you have for `COC(=O)c1cc(NC(=O)c2c(Cl)nc3sccn23)cc(C(=O)OC)c1` ?
Response given: 99.7

Challenge: What do you have for CCCc1[nH]nc2c1C(c1ccc(OC(=O)N3CCOCC3)c(OC)c1)C(C#N)=C(N)O2 (stereo unspecified) ?
Response given: 97.7
